Conditions: in 2-ethoxyethanol, 298.15 K
OBSERVATION_TYPE: solubility (mole fraction)
Lab note: record just the number, no unit beside it.

Recorded solubility (mole fraction) of CNC[C@H](O)c1cccc(O)c1.Cl , please.
0.0553

###

Details: in 2-propoxyethanol, 278.15 K
OBSERVATION_TYPE: solubility (mole fraction)
Lab note: record just the number, no unit beside it.

Recorded solubility (mole fraction) of CNC[C@H](O)c1cccc(O)c1.Cl , please.
0.00782

###

Settings: in 2-methoxyethanol, 278.15 K
OBSERVATION_TYPE: solubility (mole fraction)
Lab note: record just the number, no unit beside it.

Recorded solubility (mole fraction) of CNC[C@H](O)c1cccc(O)c1.Cl , please.
0.114

###

Conditions: in DMF, 298.15 K
OBSERVATION_TYPE: solubility (mole fraction)

Recorded solubility (mole fraction) of CNC[C@H](O)c1cccc(O)c1.Cl , please.
0.236

###

Conditions: in ethanol, 318.15 K
OBSERVATION_TYPE: solubility (mole fraction)
Lab note: record just the number, no unit beside it.

Recorded solubility (mole fraction) of CNC[C@H](O)c1cccc(O)c1.Cl , please.
0.0554

###

Settings: in DMF, 293.15 K
OBSERVATION_TYPE: solubility (mole fraction)

Recorded solubility (mole fraction) of CNC[C@H](O)c1cccc(O)c1.Cl , please.
0.222

###

Conditions: in methanol, 318.15 K
OBSERVATION_TYPE: solubility (mole fraction)
Lab note: record just the number, no unit beside it.

Recorded solubility (mole fraction) of CNC[C@H](O)c1cccc(O)c1.Cl , please.
0.165

###

Settings: in isopropanol, 308.15 K
OBSERVATION_TYPE: solubility (mole fraction)
Lab note: record just the number, no unit beside it.

Recorded solubility (mole fraction) of CNC[C@H](O)c1cccc(O)c1.Cl , please.
0.00768

###

Details: in DMF, 303.15 K
OBSERVATION_TYPE: solubility (mole fraction)
Lab note: record just the number, no unit beside it.

Recorded solubility (mole fraction) of CNC[C@H](O)c1cccc(O)c1.Cl , please.
0.251

###

Settings: in NMP, 308.15 K
OBSERVATION_TYPE: solubility (mole fraction)
Lab note: record just the number, no unit beside it.

Recorded solubility (mole fraction) of CNC[C@H](O)c1cccc(O)c1.Cl , please.
0.208

###

Details: in isopropanol, 283.15 K
OBSERVATION_TYPE: solubility (mole fraction)
Lab note: record just the number, no unit beside it.

Recorded solubility (mole fraction) of CNC[C@H](O)c1cccc(O)c1.Cl , please.
0.00251

###

Settings: in n-propanol, 278.15 K
OBSERVATION_TYPE: solubility (mole fraction)
Lab note: record just the number, no unit beside it.

Recorded solubility (mole fraction) of CNC[C@H](O)c1cccc(O)c1.Cl , please.
0.00469

###

Settings: in n-propanol, 318.15 K
OBSERVATION_TYPE: solubility (mole fraction)
Lab note: record just the number, no unit beside it.

Recorded solubility (mole fraction) of CNC[C@H](O)c1cccc(O)c1.Cl , please.
0.0236

###

Details: in NMP, 318.15 K
OBSERVATION_TYPE: solubility (mole fraction)
Lab note: record just the number, no unit beside it.

Recorded solubility (mole fraction) of CNC[C@H](O)c1cccc(O)c1.Cl , please.
0.232

Where these numbers come from: BigSolDB 2.1
